Assay: Inhibition of VEGFR2
quantityKind: IC50 (nM)

INSERT INTO results (smilesdata, resultnumber) VALUES
  ('CN1C[C@@H]2C[C@H]1CN2c1ccc(-c2ccnc3c(-c4cccc(O)c4)c(-c4ccncc4)nn23)cc1', 222);

###

A collection of molecules and their measured pIC50
Target: Serine/threonine-protein kinase B-raf (Homo sapiens, UniProt P15056)
Sequence (P15056 whole entry): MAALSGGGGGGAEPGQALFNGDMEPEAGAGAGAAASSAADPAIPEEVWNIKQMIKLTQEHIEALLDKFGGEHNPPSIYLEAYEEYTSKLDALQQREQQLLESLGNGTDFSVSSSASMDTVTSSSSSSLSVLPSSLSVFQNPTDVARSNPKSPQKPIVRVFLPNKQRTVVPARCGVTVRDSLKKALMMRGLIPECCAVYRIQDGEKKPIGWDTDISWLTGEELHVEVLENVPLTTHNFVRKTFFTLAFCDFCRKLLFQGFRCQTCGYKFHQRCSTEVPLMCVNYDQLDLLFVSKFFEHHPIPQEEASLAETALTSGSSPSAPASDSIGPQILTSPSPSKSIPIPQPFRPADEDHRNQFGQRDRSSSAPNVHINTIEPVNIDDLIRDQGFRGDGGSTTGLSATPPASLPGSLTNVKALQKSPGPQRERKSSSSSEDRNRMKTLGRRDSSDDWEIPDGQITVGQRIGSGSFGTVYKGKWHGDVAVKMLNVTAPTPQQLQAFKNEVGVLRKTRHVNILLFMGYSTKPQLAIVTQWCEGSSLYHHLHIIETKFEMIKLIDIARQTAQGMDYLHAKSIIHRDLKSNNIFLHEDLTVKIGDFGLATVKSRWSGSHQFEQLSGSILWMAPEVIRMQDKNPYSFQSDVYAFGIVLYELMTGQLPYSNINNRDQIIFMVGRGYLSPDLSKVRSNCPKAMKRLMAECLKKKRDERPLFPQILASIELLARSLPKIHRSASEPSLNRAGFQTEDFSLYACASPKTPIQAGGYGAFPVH
Test: Inhibition of human recombinant B-Raf expressed in Sf9 cells assessed as inhibition of Mek1 phosphorylation
pIC50: −log10 of the molar value.
quantityKind: pIC50

INSERT INTO measurements (smilesdata, quantitykind, boundtype, resultnumber) VALUES
  ('CN1C2CCC1CN(c1ccc(-c3ccnc4c(-c5cccc(O)c5)c(-c5ccncc5)nn34)cc1)C2', 'pIC50', '=', 9.05),
  ('Oc1cccc(-c2c(-c3ccncc3)nn3c(-c4ccc(NCC56CCN(CC5)CC6)cc4)ccnc23)c1', 'pIC50', '=', 8.70),
  ('CCN1C[C@@H]2C[C@H]1CN2c1ccc(-c2ccnc3c(-c4ccc(F)c(O)c4)c(-c4ccncc4)nn23)cc1', 'pIC50', '=', 9.29),
  ('Oc1cccc(-c2c(-c3ccncc3)nn3c(-c4ccc(N5C[C@@H]6C[C@H]5CN6)cc4F)ccnc23)c1', 'pIC50', '>', 9.49),
  ('CN1C[C@@H]2C[C@H]1CN2c1ccc(-c2ccnc3c(-c4cccc(O)c4)c(-c4ccncc4)nn23)c(F)c1', 'pIC50', '>', 9.49),
  ('Oc1cc(-c2c(-c3ccncc3)nn3c(-c4ccc(N5C[C@@H]6C[C@H]5CN6)cc4)ccnc23)ccc1F', 'pIC50', '>', 9.49),
  ('COc1cccc(-c2c(-c3ccncc3)nn3c(-c4ccc(N5C[C@@H]6C[C@H]5CN6)cc4)ccnc23)c1', 'pIC50', '=', 7.92),
  ('Oc1cccc(-c2c(-c3ccncc3)nn3c(-c4ccc(N5C[C@@H]6C[C@H]5CN6)cc4)ccnc23)c1', 'pIC50', '=', 9.31),
  ('CN1C2CCC1CN(c1ccc(-c3ccnc4c(-c5ccc(Cl)c(O)c5)c(-c5ccncc5)nn34)cc1)C2', 'pIC50', '>', 9.49),
  ('CCOC(=O)c1cnn2c(-c3cccc(NC(=O)c4cccc(C(F)(F)F)c4)c3)ccnc12', 'pIC50', '=', 5.82),
  ('Cc1cc(N2C[C@@H]3C[C@H]2CN3C)ccc1-c1ccnc2c(-c3ccc(F)c(O)c3)c(-c3ccncc3)nn12', 'pIC50', '>', 9.49),
  ('CN1C[C@@H]2C[C@H]1CN2c1ccc(-c2ccnc3c(-c4ccc(F)c(O)c4)c(-c4ccncc4)nn23)cc1', 'pIC50', '>', 9.49),
  ('COc1cccc(-c2c(-c3ccncc3)nn3c(-c4ccc(N5C[C@@H]6C[C@H]5CN6)cc4F)ccnc23)c1', 'pIC50', '=', 9.36),
  ('Oc1cccc(-c2c(-c3ccncc3)nn3c(-c4ccc(N[C@@H]5CN6CCC5CC6)cc4)ccnc23)c1', 'pIC50', '=', 8.82),
  ('COc1cccc(-c2c(-c3ccncc3)nn3c(-c4ccc(N5CC6CCC(C5)N6C)cc4)ccnc23)c1', 'pIC50', '=', 7.77),
  ('Oc1cccc(-c2c(-c3ccncc3)nn3c(-c4ccc(N[C@H]5CN6CCC5CC6)cc4)ccnc23)c1', 'pIC50', '=', 9.00),
  ('COc1cc(-c2c(-c3ccncc3)nn3c(-c4ccc(N5CC6CCC(C5)N6C)cc4)ccnc23)ccc1Cl', 'pIC50', '=', 8.01),
  ('CN1C[C@@H]2C[C@H]1CN2c1ccc(-c2ccnc3c(-c4cccc(O)c4)c(-c4ccncc4)nn23)cc1', 'pIC50', '=', 9.42),
  ('COc1cc(-c2c(-c3ccncc3)nn3c(-c4ccc(N5C[C@@H]6C[C@H]5CN6C)cc4C)ccnc23)ccc1F', 'pIC50', '=', 9.00),
  ('Cc1cc(N2C[C@@H]3C[C@H]2CN3C)ccc1-c1ccnc2c(-c3cccc(O)c3)c(-c3ccncc3)nn12', 'pIC50', '>', 9.49),
  ('CN1C[C@@H]2C[C@H]1CN2c1ccc(-c2ccnc3c(-c4cccc(O)c4)c(-c4ccncc4)nn23)c(Cl)c1', 'pIC50', '>', 9.49),
  ('Oc1cccc(-c2c(-c3ccncc3)nn3c(-c4ccc(N5C[C@@H]6C[C@H]5CN6)cc4Cl)ccnc23)c1', 'pIC50', '>', 9.49);

###

Molecular target: Inhibitor of nuclear factor kappa-B kinase subunit alpha (Homo sapiens, UniProt O15111)
Sequence (O15111 whole entry): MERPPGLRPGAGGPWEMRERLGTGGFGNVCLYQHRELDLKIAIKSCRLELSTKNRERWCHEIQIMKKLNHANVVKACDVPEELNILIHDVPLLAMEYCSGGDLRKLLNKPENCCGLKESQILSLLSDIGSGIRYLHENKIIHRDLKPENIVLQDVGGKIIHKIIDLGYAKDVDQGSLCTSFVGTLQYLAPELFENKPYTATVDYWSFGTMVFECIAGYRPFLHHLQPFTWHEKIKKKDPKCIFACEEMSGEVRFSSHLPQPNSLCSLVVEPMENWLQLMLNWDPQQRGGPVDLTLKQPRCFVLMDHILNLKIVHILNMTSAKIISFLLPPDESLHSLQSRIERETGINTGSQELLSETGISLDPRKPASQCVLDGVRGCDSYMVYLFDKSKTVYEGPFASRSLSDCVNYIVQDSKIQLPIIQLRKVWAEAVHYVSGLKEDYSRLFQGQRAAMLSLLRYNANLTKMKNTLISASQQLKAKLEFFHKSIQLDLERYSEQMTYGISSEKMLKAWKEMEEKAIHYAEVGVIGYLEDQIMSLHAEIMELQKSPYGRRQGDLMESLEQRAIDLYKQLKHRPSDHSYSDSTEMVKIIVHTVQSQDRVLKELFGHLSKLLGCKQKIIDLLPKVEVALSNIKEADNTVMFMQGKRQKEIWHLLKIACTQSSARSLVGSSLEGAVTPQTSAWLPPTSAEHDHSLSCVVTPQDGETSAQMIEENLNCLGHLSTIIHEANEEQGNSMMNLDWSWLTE
Assay: Inhibition of IKKalpha
pIC50: −log10 of the molar value.
quantityKind: pIC50

INSERT INTO assay_data (smilesdata, quantitykind, result) VALUES
  ('CN1C[C@@H]2C[C@H]1CN2c1ccc(-c2ccnc3c(-c4cccc(O)c4)c(-c4ccncc4)nn23)cc1', 'pIC50', '< 4.30');

###

Biological target: UniProt:P07948
Sequence (P07948 whole entry): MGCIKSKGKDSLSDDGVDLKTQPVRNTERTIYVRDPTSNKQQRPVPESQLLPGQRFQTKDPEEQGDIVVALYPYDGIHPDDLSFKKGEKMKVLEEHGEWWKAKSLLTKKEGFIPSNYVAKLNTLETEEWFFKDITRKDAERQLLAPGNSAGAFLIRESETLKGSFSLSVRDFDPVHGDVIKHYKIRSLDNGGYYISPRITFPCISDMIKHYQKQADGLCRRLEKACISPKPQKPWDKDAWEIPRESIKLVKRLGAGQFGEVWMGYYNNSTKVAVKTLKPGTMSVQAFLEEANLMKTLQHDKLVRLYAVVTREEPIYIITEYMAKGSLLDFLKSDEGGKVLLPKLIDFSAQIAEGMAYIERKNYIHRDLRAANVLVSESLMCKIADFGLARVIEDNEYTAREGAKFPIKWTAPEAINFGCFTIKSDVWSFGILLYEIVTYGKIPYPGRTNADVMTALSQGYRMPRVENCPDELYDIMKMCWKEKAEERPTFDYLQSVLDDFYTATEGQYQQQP
pIC50: −log10 of the molar value.
quantityKind: pIC50

INSERT INTO assay_data (smilesdata, resultnumber) VALUES
  ('CN1C[C@@H]2C[C@H]1CN2c1ccc(-c2ccnc3c(-c4cccc(O)c4)c(-c4ccncc4)nn23)cc1', 5.75);

###

Molecular target: Platelet-derived growth factor receptor alpha (Homo sapiens, UniProt P16234)
quantityKind: IC50 (µM)

INSERT INTO assay_data (smilesdata, quantitykind, unitsofmeasure, resultnumber) VALUES
  ('CN1C[C@@H]2C[C@H]1CN2c1ccc(-c2ccnc3c(-c4cccc(O)c4)c(-c4ccncc4)nn23)cc1', 'IC50', 'µM', 6.56);

###

Molecular target: Inhibitor of nuclear factor kappa-B kinase subunit beta (Homo sapiens, UniProt O14920)
Sequence (O14920 whole entry): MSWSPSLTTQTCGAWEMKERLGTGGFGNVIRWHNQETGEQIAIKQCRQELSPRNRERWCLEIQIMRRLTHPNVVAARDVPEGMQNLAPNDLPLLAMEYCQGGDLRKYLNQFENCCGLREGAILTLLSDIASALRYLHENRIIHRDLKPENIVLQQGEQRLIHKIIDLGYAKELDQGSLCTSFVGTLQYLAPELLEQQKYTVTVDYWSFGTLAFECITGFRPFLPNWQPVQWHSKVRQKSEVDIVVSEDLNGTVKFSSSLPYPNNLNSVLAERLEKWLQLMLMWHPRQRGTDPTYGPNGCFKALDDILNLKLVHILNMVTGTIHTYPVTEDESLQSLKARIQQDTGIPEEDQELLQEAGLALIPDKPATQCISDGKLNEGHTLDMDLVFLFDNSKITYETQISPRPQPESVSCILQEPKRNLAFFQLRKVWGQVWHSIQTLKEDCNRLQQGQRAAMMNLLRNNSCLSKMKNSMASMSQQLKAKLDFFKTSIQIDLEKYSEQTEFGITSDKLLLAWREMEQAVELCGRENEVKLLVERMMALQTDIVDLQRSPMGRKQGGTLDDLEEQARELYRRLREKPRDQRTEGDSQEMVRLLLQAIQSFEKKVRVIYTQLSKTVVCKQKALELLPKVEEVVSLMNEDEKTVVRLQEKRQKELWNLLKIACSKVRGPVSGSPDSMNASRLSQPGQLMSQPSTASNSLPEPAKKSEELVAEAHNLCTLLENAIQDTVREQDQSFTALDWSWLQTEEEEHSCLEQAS
Assay: Inhibition of IKK-beta
quantityKind: IC50

INSERT INTO measurements (smilesdata, result) VALUES
  ('CN1C[C@@H]2C[C@H]1CN2c1ccc(-c2ccnc3c(-c4cccc(O)c4)c(-c4ccncc4)nn23)cc1', '> 50 µM');

###

Target: UniProt:P00519
Sequence (P00519 whole entry): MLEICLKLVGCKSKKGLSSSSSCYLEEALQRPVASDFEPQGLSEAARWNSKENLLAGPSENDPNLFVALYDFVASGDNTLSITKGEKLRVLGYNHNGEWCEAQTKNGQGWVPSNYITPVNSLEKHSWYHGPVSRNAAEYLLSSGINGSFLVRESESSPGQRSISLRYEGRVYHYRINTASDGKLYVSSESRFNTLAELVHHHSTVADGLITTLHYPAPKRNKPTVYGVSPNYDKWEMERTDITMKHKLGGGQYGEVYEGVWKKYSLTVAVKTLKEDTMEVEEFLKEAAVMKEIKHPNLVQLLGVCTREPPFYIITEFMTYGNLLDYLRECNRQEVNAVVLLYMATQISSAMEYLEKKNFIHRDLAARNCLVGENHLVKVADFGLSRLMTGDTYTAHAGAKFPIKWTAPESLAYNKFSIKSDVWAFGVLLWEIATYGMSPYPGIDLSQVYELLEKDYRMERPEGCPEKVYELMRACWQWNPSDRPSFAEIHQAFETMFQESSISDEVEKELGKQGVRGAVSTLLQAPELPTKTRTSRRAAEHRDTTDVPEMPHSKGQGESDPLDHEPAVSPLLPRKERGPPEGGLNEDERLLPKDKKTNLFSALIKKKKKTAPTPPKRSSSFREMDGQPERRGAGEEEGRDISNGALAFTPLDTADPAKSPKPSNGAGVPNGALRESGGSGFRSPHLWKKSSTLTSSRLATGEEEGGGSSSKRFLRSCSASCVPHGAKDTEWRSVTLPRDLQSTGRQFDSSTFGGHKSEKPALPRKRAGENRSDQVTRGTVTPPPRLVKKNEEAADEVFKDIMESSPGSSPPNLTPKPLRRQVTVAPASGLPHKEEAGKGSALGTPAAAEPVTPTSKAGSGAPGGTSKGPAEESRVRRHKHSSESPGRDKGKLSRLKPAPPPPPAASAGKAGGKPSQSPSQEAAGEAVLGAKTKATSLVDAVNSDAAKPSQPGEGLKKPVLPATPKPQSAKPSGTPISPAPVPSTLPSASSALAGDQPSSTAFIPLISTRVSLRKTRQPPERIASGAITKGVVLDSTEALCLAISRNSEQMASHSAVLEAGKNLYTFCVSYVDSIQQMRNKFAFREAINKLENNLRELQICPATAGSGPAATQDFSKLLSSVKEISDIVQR
pIC50: −log10 of the molar value.
quantityKind: pIC50

INSERT INTO results (smilesdata, resultnumber) VALUES
  ('CN1C[C@@H]2C[C@H]1CN2c1ccc(-c2ccnc3c(-c4cccc(O)c4)c(-c4ccncc4)nn23)cc1', 6.25);

###

Biological target: Proto-oncogene tyrosine-protein kinase Src (Homo sapiens)
pIC50: −log10 of the molar value.
quantityKind: pIC50

INSERT INTO results (smilesdata, resultnumber) VALUES
  ('CN1C[C@@H]2C[C@H]1CN2c1ccc(-c2ccnc3c(-c4cccc(O)c4)c(-c4ccncc4)nn23)cc1', 6.17);

###

Target: Rho-associated protein kinase 1 (Homo sapiens, UniProt Q13464)
quantityKind: IC50 (µM)

INSERT INTO measurements (smilesdata, quantitykind, unitsofmeasure, resultnumber) VALUES
  ('CN1C[C@@H]2C[C@H]1CN2c1ccc(-c2ccnc3c(-c4cccc(O)c4)c(-c4ccncc4)nn23)cc1', 'IC50', 'µM', 17.6);

###

Target: Aurora kinase B (Homo sapiens)
Sequence (Q96GD4 whole entry): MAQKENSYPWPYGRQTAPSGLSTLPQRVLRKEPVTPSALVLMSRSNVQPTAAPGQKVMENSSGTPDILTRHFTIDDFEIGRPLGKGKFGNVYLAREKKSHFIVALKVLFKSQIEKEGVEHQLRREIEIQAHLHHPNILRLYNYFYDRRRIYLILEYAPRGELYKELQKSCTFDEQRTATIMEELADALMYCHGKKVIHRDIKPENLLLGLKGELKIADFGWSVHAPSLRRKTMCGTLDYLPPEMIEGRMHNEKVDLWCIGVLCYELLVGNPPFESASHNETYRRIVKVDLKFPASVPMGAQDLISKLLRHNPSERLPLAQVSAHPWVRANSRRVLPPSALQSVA
quantityKind: IC50 (µM)

INSERT INTO results (smilesdata, quantitykind, unitsofmeasure, resultnumber) VALUES
  ('CN1C[C@@H]2C[C@H]1CN2c1ccc(-c2ccnc3c(-c4cccc(O)c4)c(-c4ccncc4)nn23)cc1', 'IC50', 'µM', 25.5);

###

Target: Serine/threonine-protein kinase Chk1 (Homo sapiens, UniProt O14757)
pIC50: −log10 of the molar value.
quantityKind: pIC50

INSERT INTO measurements (smilesdata, resultnumber) VALUES
  ('CN1C[C@@H]2C[C@H]1CN2c1ccc(-c2ccnc3c(-c4cccc(O)c4)c(-c4ccncc4)nn23)cc1', 4.73);

###

Target: UniProt P08631
Sequence (P08631 whole entry): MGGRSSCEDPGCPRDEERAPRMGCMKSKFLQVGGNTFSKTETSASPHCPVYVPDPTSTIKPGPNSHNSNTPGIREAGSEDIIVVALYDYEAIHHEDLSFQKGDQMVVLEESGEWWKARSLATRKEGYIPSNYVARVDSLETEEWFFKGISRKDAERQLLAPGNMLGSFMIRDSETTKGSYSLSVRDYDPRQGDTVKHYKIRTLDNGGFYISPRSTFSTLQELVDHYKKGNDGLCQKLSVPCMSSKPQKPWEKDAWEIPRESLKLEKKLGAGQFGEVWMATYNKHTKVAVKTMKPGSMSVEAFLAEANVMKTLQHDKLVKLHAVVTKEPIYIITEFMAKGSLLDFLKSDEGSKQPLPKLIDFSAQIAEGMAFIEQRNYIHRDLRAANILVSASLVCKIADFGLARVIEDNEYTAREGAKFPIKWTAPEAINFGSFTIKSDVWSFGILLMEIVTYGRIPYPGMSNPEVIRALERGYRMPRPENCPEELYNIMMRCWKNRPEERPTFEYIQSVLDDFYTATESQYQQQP
pIC50: −log10 of the molar value.
quantityKind: pIC50

INSERT INTO results (smilesdata, quantitykind, resultnumber) VALUES
  ('CN1C[C@@H]2C[C@H]1CN2c1ccc(-c2ccnc3c(-c4cccc(O)c4)c(-c4ccncc4)nn23)cc1', 'pIC50', 5.91);
